Ref: paper PMC10388327

- Measured Target: human histamine H2 receptor (hH2R) (Homo sapiens, UniProt P25021)
- Construct: SP (signal peptide) (N); FLAG (N); expressed in transfected cells
- Sequence (P25021 whole entry): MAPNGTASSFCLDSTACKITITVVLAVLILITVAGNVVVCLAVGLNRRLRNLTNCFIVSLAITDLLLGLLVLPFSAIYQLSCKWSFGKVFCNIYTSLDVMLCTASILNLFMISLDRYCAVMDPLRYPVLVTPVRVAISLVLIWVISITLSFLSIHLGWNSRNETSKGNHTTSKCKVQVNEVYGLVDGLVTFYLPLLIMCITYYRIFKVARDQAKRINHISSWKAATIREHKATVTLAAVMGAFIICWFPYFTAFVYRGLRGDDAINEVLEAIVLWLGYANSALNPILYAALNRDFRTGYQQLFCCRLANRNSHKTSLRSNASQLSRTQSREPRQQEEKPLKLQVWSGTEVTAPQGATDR
- Assay Remarks: hH2R radioligand binding ([3H]UR-DE257)
- Reported Conditions: read-out: hH2R (Ki [nM] x̅ [CI 95%]); HEK293T cells; n = 3, triplicate

Compound	Ki
c1ccc(-c2ccc(OCCCN3CCCCCC3)cc2)cc1 [Compound 3]	> 10000 nM

---

- Measured Target: sigma-1 receptor (σ1R) (Cavia porcellus, UniProt Q60492)
- Construct: The thawed membrane preparation of the guinea pig brain cortex was incubated; from tissue; host or cells: male Dunkin-Hartley guinea pig brain cortex membranes
- Sequence (Q60492 whole entry): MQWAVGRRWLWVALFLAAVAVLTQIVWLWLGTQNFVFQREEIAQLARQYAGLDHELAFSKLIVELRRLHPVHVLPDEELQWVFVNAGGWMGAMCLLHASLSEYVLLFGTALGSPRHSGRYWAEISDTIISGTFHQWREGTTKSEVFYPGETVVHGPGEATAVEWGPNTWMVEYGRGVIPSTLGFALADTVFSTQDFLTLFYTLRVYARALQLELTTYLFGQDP
- Assay Remarks: σ1R radioligand binding ([3H](+)-pentazocine)
- Parameters: species or system guinea pig
- Reported Conditions: read-out: σ1R Ki [nM] x̄ [CI 95%]; mean [CI 95%]

Compound	Measured Target	Unit String	Ki
c1ccc(-c2ccc(OCCCCN3CCCCC3)cc2)cc1	sigma-1 receptor (σ1R) (Cavia porcellus, UniProt Q60492)	nM	95
c1ccc(-c2ccc(OCCCN3CCCC3)cc2)cc1	sigma-1 receptor (σ1R) (Cavia porcellus, UniProt Q60492)	nM	24
N#Cc1ccc(-c2ccc(OCCCN3CCCCC3)cc2)cc1.O=C(O)C(=O)O	sigma-1 receptor (σ1R) (Cavia porcellus, UniProt Q60492)	nM	28
CC(C)(C)c1ccc(OCCCCN2CCN(c3cnccn3)CC2)cc1	sigma-1 receptor (σ1R) (Cavia porcellus, UniProt Q60492)	nM	7.6
N#Cc1ccc(-c2ccc(OCCCN3CCC(c4ccncc4)CC3)cc2)cc1	sigma-1 receptor (σ1R) (Cavia porcellus, UniProt Q60492)	nM	4.5
c1ccc(-c2ccc(OCCCCCCN3CCCCC3)cc2)cc1	sigma-1 receptor (σ1R) (Cavia porcellus, UniProt Q60492)	nM	118
c1ccc(-c2ccc(OCCCCCN3CCCCC3)cc2)cc1	sigma-1 receptor (σ1R) (Cavia porcellus, UniProt Q60492)	nM	140
c1ccc(Cc2ccc(OCCCN3CCC(c4ccncc4)CC3)cc2)cc1	sigma-1 receptor (σ1R) (Cavia porcellus, UniProt Q60492)	nM	2.8
c1ccc(Oc2ccc(OCCCN3CCC(c4ccncc4)CC3)cc2)cc1	sigma-1 receptor (σ1R) (Cavia porcellus, UniProt Q60492)	nM	5.6
c1ccc(Cc2ccc(OCCCN3CCCCC3)cc2)cc1	sigma-1 receptor (σ1R) (Cavia porcellus, UniProt Q60492)	nM	5.5
c1ccc(-c2ccc(OCCCN3CCCCCC3)cc2)cc1	sigma-1 receptor (σ1R) (Cavia porcellus, UniProt Q60492)	nM	1.9
CC1CCCN(CCCOc2ccc(-c3ccccc3)cc2)C1 (stereo not shown)	sigma-1 receptor (σ1R) (Cavia porcellus, UniProt Q60492)	nM	1.5
c1ccc(Nc2ccc(OCCCN3CCCCC3)cc2)cc1	sigma-1 receptor (σ1R) (Cavia porcellus, UniProt Q60492)	nM	4.8
c1ccc(Nc2ccc(OCCCN3CCC(c4ccncc4)CC3)cc2)cc1	sigma-1 receptor (σ1R) (Cavia porcellus, UniProt Q60492)	nM	3.3
c1ccc(Oc2ccc(OCCCN3CCCCC3)cc2)cc1	sigma-1 receptor (σ1R) (Cavia porcellus, UniProt Q60492)	nM	18
CC1CCN(CCCOc2ccc(-c3ccccc3)cc2)CC1	sigma-1 receptor (σ1R) (Cavia porcellus, UniProt Q60492)	nM	2.4

---

Recorded Ki values for a group of compounds are listed next.
- Measured Target: human histamine H1 receptor (hH1R) (Homo sapiens)
- Construct: SP (signal peptide) (N); FLAG (N); expressed in transfected cells
- Sequence (P35367 whole entry): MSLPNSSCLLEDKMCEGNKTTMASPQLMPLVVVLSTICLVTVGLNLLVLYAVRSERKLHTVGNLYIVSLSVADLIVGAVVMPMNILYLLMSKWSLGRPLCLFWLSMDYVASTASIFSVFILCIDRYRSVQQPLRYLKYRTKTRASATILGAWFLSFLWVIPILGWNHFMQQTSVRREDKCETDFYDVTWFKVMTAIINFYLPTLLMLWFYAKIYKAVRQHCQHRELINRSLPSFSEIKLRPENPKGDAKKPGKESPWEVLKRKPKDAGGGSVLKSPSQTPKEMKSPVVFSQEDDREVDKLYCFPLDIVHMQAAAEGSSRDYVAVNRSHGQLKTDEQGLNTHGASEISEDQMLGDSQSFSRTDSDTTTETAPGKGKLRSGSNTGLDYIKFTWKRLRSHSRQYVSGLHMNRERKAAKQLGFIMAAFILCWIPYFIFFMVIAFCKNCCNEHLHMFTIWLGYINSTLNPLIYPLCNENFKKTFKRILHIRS
- Assay Remarks: hH1R radioligand binding ([3H]mepyramine)
- Reported Conditions: read-out: hH1R (Ki [nM] x̅ [CI 95%]); HEK293T cells; n = 3, triplicate
Measure: Ki (nM)

Chemical String	Measured Target	Prefix Operator	Quantitative Readout
c1ccc(Nc2ccc(OCCCN3CCCCC3)cc2)cc1	human histamine H1 receptor (hH1R) (Homo sapiens)	>	10000
N#Cc1ccc(-c2ccc(OCCCN3CCC(c4ccncc4)CC3)cc2)cc1	human histamine H1 receptor (hH1R) (Homo sapiens)	=	653
c1ccc(-c2ccc(OCCCN3CCCCCC3)cc2)cc1	human histamine H1 receptor (hH1R) (Homo sapiens)	=	7620

---

- Measured Target: sigma-2 receptor (σ2R) (Rattus norvegicus, UniProt Q5U3Y7)
- Construct: The thawed membrane preparation of rat liver was incubated; from tissue; host or cells: Sprague-Dawley rat liver membranes
- Sequence (Q5U3Y7 whole entry): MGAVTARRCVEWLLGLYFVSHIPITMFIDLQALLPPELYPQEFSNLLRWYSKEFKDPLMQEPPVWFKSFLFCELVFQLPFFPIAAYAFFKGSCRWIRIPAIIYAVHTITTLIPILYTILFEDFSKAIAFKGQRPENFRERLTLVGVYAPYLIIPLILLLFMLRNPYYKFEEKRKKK
- Assay Remarks: σ2R radioligand binding ([3H]DTG)
- Reported Conditions: read-out: σ2R Ki [nM] x̄ [CI 95%]; mean [CI 95%]
Recorded Ki values for a group of compounds are listed next.

Compound	Measured Target	Unit String	Ki
N#Cc1ccc(-c2ccc(OCCCN3CCCCC3)cc2)cc1.O=C(O)C(=O)O	sigma-2 receptor (σ2R) (Rattus norvegicus, UniProt Q5U3Y7)	nM	47
CC(C)(C)c1ccc(OCCCCN2CCN(c3cnccn3)CC2)cc1	sigma-2 receptor (σ2R) (Rattus norvegicus, UniProt Q5U3Y7)	nM	27
c1ccc(-c2ccc(OCCCN3CCCCCC3)cc2)cc1	sigma-2 receptor (σ2R) (Rattus norvegicus, UniProt Q5U3Y7)	nM	25
c1ccc(Cc2ccc(OCCCN3CCC(c4ccncc4)CC3)cc2)cc1	sigma-2 receptor (σ2R) (Rattus norvegicus, UniProt Q5U3Y7)	nM	9.9
CC1CCN(CCCOc2ccc(-c3ccccc3)cc2)CC1	sigma-2 receptor (σ2R) (Rattus norvegicus, UniProt Q5U3Y7)	nM	16
c1ccc(Nc2ccc(OCCCN3CCC(c4ccncc4)CC3)cc2)cc1	sigma-2 receptor (σ2R) (Rattus norvegicus, UniProt Q5U3Y7)	nM	29
c1ccc(Nc2ccc(OCCCN3CCCCC3)cc2)cc1	sigma-2 receptor (σ2R) (Rattus norvegicus, UniProt Q5U3Y7)	nM	116
c1ccc(-c2ccc(OCCCCCCN3CCCCC3)cc2)cc1	sigma-2 receptor (σ2R) (Rattus norvegicus, UniProt Q5U3Y7)	nM	46
N#Cc1ccc(-c2ccc(OCCCN3CCC(c4ccncc4)CC3)cc2)cc1	sigma-2 receptor (σ2R) (Rattus norvegicus, UniProt Q5U3Y7)	nM	10
c1ccc(-c2ccc(OCCCCN3CCCCC3)cc2)cc1	sigma-2 receptor (σ2R) (Rattus norvegicus, UniProt Q5U3Y7)	nM	33
c1ccc(Cc2ccc(OCCCN3CCCCC3)cc2)cc1	sigma-2 receptor (σ2R) (Rattus norvegicus, UniProt Q5U3Y7)	nM	47
c1ccc(-c2ccc(OCCCCCN3CCCCC3)cc2)cc1	sigma-2 receptor (σ2R) (Rattus norvegicus, UniProt Q5U3Y7)	nM	19
CC1CCCN(CCCOc2ccc(-c3ccccc3)cc2)C1 (stereo not shown)	sigma-2 receptor (σ2R) (Rattus norvegicus, UniProt Q5U3Y7)	nM	17
c1ccc(Oc2ccc(OCCCN3CCC(c4ccncc4)CC3)cc2)cc1	sigma-2 receptor (σ2R) (Rattus norvegicus, UniProt Q5U3Y7)	nM	4
c1ccc(-c2ccc(OCCCN3CCCC3)cc2)cc1	sigma-2 receptor (σ2R) (Rattus norvegicus, UniProt Q5U3Y7)	nM	65
c1ccc(Oc2ccc(OCCCN3CCCCC3)cc2)cc1	sigma-2 receptor (σ2R) (Rattus norvegicus, UniProt Q5U3Y7)	nM	103

---

Recorded Ki values for a group of compounds are listed next.
- Measured Target: human recombinant histamine H3R (Homo sapiens, UniProt Q9Y5N1)
- Construct: expressed in transfected cells
- Sequence (Q9Y5N1 whole entry): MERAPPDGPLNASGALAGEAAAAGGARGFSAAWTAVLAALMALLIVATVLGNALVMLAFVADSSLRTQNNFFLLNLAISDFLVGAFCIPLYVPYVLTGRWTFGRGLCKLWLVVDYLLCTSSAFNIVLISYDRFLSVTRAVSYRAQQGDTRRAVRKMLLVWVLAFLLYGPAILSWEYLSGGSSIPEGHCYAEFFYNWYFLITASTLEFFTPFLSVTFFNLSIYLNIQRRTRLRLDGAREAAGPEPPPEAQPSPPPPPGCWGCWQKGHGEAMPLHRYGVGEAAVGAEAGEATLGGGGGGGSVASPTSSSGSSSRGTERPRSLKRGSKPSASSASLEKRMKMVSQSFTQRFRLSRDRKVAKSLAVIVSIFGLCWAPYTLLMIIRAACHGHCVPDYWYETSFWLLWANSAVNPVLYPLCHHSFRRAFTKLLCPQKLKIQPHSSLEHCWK
- Assay Remarks: hH3R radioligand binding ([3H]Nα-methylhistamine depletion assay)
- Reported Conditions: read-out: hH3R Ki [nM] x̄ [CI 95%]; mean [CI 95%]; HEK-293 cells
Measure: Ki

Compound	Measured Target	Result
c1ccc(Nc2ccc(OCCCN3CCCCC3)cc2)cc1	human recombinant histamine H3R (Homo sapiens, UniProt Q9Y5N1)	5.2 nM
c1ccc(-c2ccc(OCCCN3CCCCCC3)cc2)cc1	human recombinant histamine H3R (Homo sapiens, UniProt Q9Y5N1)	4.3 nM
N#Cc1ccc(-c2ccc(OCCCN3CCC(c4ccncc4)CC3)cc2)cc1	human recombinant histamine H3R (Homo sapiens, UniProt Q9Y5N1)	7.7 nM
CC1CCN(CCCOc2ccc(-c3ccccc3)cc2)CC1	human recombinant histamine H3R (Homo sapiens, UniProt Q9Y5N1)	10.3 nM
c1ccc(-c2ccc(OCCCN3CCCC3)cc2)cc1	human recombinant histamine H3R (Homo sapiens, UniProt Q9Y5N1)	19.5 nM
c1ccc(Cc2ccc(OCCCN3CCC(c4ccncc4)CC3)cc2)cc1	human recombinant histamine H3R (Homo sapiens, UniProt Q9Y5N1)	76.1 nM
c1ccc(-c2ccc(OCCCCN3CCCCC3)cc2)cc1	human recombinant histamine H3R (Homo sapiens, UniProt Q9Y5N1)	22 nM
CC1CCCN(CCCOc2ccc(-c3ccccc3)cc2)C1 (centres unmarked)	human recombinant histamine H3R (Homo sapiens, UniProt Q9Y5N1)	31 nM
c1ccc(Nc2ccc(OCCCN3CCC(c4ccncc4)CC3)cc2)cc1	human recombinant histamine H3R (Homo sapiens, UniProt Q9Y5N1)	69 nM
c1ccc(Oc2ccc(OCCCN3CCC(c4ccncc4)CC3)cc2)cc1	human recombinant histamine H3R (Homo sapiens, UniProt Q9Y5N1)	24.2 nM
c1ccc(Oc2ccc(OCCCN3CCCCC3)cc2)cc1	human recombinant histamine H3R (Homo sapiens, UniProt Q9Y5N1)	2.7 nM
